This listing pairs binders with measured % Activity (FLIPR).
Biological target: T1, human NMUR1 (human, UniProt Q9HB89 1-426)
T1 sequence (looked up): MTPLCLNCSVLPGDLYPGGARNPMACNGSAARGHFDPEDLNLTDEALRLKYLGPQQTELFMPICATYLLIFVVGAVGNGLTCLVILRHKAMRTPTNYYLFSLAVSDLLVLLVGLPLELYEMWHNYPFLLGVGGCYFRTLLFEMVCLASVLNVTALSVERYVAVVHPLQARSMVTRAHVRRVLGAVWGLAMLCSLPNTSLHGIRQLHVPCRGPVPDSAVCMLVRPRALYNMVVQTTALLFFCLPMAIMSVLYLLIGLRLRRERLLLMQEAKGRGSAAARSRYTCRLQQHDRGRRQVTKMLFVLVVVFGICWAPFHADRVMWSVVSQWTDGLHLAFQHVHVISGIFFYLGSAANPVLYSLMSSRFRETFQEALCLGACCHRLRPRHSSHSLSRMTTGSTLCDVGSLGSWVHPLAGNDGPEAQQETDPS
Assay: cell-based or functional assay
Starred links: 1 amine or outer side, 2 acyl side, 3 side chain; linkers in the order of their positions; H or OH if unused. Non-standard residues stand in square brackets, D forms with d. *: point of attachment. Ttds = 1-amino-4,7,10-trioxa-13-tridecanamine succinimic acid spacer, O=C(CCC(=O)[*:2])NCCCOCCOCCOCCCN[*:1]; (PEG)2 40 kDa = branched PEG of 40 kDa linked via the Cys side-chain thiol (code C2 = Cys(PEG)2 40 kDa); Cholesteroyl = cholesterol linked to a cysteine residue via the side-chain thiol; Succinimide(1-Et,3-yl) = CCN1C(=O)CC(*)C1=O; Palmitoyl = CCCCCCCCCCCCCCCC(=O)*
Could you give me the number in %? Just the number is fine.

Consider the following illustrative entries.
Binder	Reported Value
Ac-C(Cholesteroyl)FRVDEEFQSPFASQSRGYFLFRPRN-NH2 [NMU10]	26.6
Ac-C(Succinimide(1-Et,3-yl))[Ttds]FLFRPRN-NH2 (SMILES CCN1C(=O)CC(SC[C@H](NC(C)=O)C(=O)NCCCOCCOCCOCCCNC(=O)CCC(=O)N[C@@H](Cc2ccccc2)C(=O)N[C@@H](CC(C)C)C(=O)N[C@@H](Cc2ccccc2)C(=O)N[C@@H](CCCNC(=N)N)C(=O)N2CCC[C@H]2C(=O)N[C@@H](CCCNC(=N)N)C(=O)N[C@@H](CC(N)=O)C(N)=O)C1=O) [NMU15]	91.5
Palmitoyl-C((PEG)2 40 kDa)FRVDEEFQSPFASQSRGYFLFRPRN-NH2 [NMU25]	83

Next up:
Measured % Activity (FLIPR), Ac-C(PEG 20 kDa)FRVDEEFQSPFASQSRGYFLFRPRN-NH2 [NMU21] : 93.2
